subject-of-test: Menin protein (Homo sapiens, UniProt O00255, DEL460-519)
Sequence (O00255 with tags, fused parts or gaps DEL460-519): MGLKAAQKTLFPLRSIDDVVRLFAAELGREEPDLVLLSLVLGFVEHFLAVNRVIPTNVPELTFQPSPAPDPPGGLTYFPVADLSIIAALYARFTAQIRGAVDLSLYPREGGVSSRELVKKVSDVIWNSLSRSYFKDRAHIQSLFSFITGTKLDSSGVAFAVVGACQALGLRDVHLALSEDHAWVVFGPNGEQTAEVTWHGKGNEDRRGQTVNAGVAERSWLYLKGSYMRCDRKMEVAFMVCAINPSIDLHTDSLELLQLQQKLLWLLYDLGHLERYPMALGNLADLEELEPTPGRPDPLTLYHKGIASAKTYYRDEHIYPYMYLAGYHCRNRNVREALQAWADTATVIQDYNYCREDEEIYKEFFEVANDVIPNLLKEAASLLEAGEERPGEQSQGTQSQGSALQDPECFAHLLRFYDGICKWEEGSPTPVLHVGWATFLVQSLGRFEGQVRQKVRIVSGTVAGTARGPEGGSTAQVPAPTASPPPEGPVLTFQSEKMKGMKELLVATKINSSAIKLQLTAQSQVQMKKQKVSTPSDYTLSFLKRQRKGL
test-description: Menin/MLL fluorescence polarization (FP) assay
experimental-parameters: Menin 2 nM, cRho110-Ahx-MBM1/MBM2 peptide 1 nM
Give measured IC50 for each item. Keep answers brief.
Record the value in µM, omitting the unit from your answer.

### Prompt Query for Menin protein (Homo sapiens, UniProt O00255, DEL460-519): what IC50 does the record show for Cc1c(C(=O)[C@@H]2CCN(C(=O)[C@H]3NC[C@@H]4C[C@@H]43)[C@@H](C)C2)c2ccncc2n1-c1ccc(F)cc1C(=O)N(CC(F)(F)F)C(C)C (single isomer, unassigned) [Example 53-2] ?
### Response 7.8

### Prompt Moving on to Cc1c(C(=O)[C@@H]2CCN(C(=O)[C@H]3NC[C@@H]4C[C@@H]43)[C@@H](C)C2)c2ccncc2n1-c1ccc(F)cc1C(=O)N(CC(F)(F)F)C(C)C (single isomer, unassigned) [Example 53-3]
### Response 0.014

### Prompt Proceed to CCN(C(=O)c1cc(F)ccc1-n1c(C)c(C(=O)C2CCN(C(=O)[C@@H]3CCC(C)(C)N3)CC2)c2ccncc21)C(C)C (single isomer, unassigned)
### Response 0.029

### Prompt Repeat with "CCN(C(=O)c1cc(F)ccc1-n1cc(C(=O)C2CCN(C(=O)[C@H]3NC[C@@H]4C[C@@H]43)CC2)c2ccncc21)C(C)C"
### Response 0.017

====

Provide the recorded IC50 for the entries that follow.
subject-of-test: hERG (Homo sapiens (Human), UniProt Q12809)
Sequence (Q12809 whole entry): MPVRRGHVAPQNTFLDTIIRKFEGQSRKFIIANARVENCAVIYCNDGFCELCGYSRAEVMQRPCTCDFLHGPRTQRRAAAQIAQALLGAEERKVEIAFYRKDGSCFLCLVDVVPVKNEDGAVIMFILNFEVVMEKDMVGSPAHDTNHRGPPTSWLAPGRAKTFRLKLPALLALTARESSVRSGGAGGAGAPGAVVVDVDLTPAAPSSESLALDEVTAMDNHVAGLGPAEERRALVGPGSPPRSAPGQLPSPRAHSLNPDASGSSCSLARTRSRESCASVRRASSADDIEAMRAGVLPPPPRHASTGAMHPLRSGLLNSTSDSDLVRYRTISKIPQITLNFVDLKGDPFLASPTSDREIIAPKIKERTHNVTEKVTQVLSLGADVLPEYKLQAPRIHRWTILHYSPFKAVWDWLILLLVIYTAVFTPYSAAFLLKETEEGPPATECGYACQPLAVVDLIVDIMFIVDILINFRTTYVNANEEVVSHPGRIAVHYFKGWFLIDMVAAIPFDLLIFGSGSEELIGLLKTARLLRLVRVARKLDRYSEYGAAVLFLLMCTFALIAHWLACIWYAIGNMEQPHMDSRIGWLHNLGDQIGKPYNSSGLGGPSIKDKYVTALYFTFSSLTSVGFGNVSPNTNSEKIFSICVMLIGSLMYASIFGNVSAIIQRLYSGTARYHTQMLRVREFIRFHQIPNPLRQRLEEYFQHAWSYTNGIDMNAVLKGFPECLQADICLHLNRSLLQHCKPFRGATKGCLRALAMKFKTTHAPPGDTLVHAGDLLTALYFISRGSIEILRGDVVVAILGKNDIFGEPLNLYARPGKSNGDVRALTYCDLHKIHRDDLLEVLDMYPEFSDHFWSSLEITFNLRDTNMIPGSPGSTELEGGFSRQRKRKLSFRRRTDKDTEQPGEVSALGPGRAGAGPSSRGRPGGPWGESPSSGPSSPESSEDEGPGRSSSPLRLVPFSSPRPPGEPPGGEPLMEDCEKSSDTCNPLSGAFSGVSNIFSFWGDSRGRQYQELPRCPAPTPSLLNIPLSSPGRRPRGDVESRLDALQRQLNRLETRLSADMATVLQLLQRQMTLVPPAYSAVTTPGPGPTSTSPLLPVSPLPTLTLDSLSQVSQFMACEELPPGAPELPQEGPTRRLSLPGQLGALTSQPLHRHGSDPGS
test-description: hERG assay 1 (standard), SyncroPatch 384PE
Format: cell-based
experimental-parameters: CHO cells, room temperature, up to 40 uM

### Prompt Consider the compound CC(C)c1ccncc1-c1cc(F)ccc1-n1cc(C(=O)C2CCN(C(=O)[C@H]3N[C@@H]4CC[C@H]3C4)CC2)c2ccncc21 [Example 41] and give its measured IC50.
### Response > 40 µM

### Prompt Can you check CC(C)c1ncccc1-c1cc(F)ccc1-n1cc(C(=O)C2CCN(C(=O)[C@H]3N[C@@H]4CC[C@H]3C4)CC2)c2ccncc21 [Example 38] next?
### Response > 40 µM

### Prompt Note, next up: CC(C)N(C(=O)c1cc(F)ccc1-n1cc(C(=O)[C@H]2CCN(C[C@H]3CC[C@H](NS(C)(=O)=O)CC3)C2)c2ccncc21)C(C)C [Example 1]
### Response 9.9 µM

### Prompt Note, next up: Cc1c(C(=O)C2CCN(C(=O)[C@H]3NC[C@@H]4C[C@@H]43)CC2)c2ccncc2n1-c1ccc(F)cc1C(=O)N(C(C)C)C(C)C (single isomer, unassigned) [Example 55-2]
### Response > 40 µM

### Prompt Query Cc1c(C(=O)[C@@H]2CCN(C(=O)[C@H]3NC[C@@H]4C[C@@H]43)[C@@H](C)C2)c2ccncc2n1-c1ccc(F)cc1C(=O)N(CC(F)(F)F)C(C)C (single isomer, unassigned) [Example 53-3] next
### Response 31.4 µM

### Prompt Can you handle Cc1c(C(=O)C2CCN(C(=O)[C@H]3NC[C@@H]4C[C@@H]43)CC2)c2ccncc2n1-c1ccc(F)cc1C(=O)N(C(C)C)C(C)C (single isomer, unassigned) [Example 55-1] next?
### Response > 40 µM

### Prompt Next compound up: Cc1c(C(=O)C2CCN(C(=O)[C@H]3NC[C@@H]4C[C@@H]43)CC2)c2ccncc2n1-c1ccc(F)cc1C(=O)N(C(C)C)[C@H](C)C(F)(F)F (single isomer, unassigned) [Example 57-1]
### Response > 38.5 µM

### Prompt And for Cc1c(C(=O)C2CCN(C(=O)[C@@H]3CC[C@@H](C)N3)CC2)c2ccncc2n1-c1ccc(F)cc1C(=O)N(C(C)C)C(C)C [Example 61] ?
### Response > 40 µM

### Prompt What would you report for C=C1C[C@@H]2CC[C@H]1[C@@H](C(=O)N1CCC(C(=O)c3cn(-c4ccc(F)cc4C(=O)N(C(C)C)C(C)C)c4cnccc34)CC1)N2 [Example 18] ?
### Response > 40 µM

### Prompt Another compound: CC(C)N(C(=O)c1cc(F)ccc1-n1cc(C(=O)C2CCN(C(=O)[C@@H]3CCC4(CC4)N3)CC2)c2ccncc21)C(C)C [Example 24]
### Response 38.3 µM

### Prompt Would you kindly repeat that for CC(C)(F)c1ncccc1-c1cc(F)ccc1-n1cc(C(=O)C2CN(C(=O)[C@H]3N[C@@H]4CC[C@H]3C4)C2)c2ccncc21 [Example 13] ?
### Response 35.8 µM

### Prompt Next compound: Cc1c(C(=O)C2CCN(C(=O)[C@@H]3CCC(C)(C)N3)CC2)c2ccncc2n1-c1ccc(F)cc1C(=O)N(C(C)C)C(C)C (single isomer, unassigned) [Compound 56-2]
### Response > 40 µM

### Prompt Also CC(C)N(C(=O)c1cc(F)ccc1-n1cc(C(=O)C2CN(C(=O)[C@H]3N[C@@H]4CC[C@H]3C4)C2)c2ccnc(F)c21)C(C)C [Example 15] , if possible.
### Response 24.9 µM

### Prompt Okay, and CCN(C(=O)c1cc(F)ccc1-n1c(C)c(C(=O)C2CCN(C(=O)[C@H]3N[C@@H]4CC[C@H]3C4)CC2)c2ccncc21)C(C)C [Example 46] ?
### Response > 40 µM

### Prompt Moving on to CC(C)N(C(=O)c1cc(F)ccc1-n1cc(C(=O)C2CN(C(=O)[C@H]3N[C@H]4C[C@@H]3[C@@H](F)C4)C2)c2ccncc21)C(C)C [Example 7]
### Response > 40 µM

### Prompt // next record CC(C)N(C(=O)c1cc(F)ccc1-n1cc(C(=O)C2CCN(C(=O)[C@H]3N[C@H]4C[C@@H]3[C@@H](F)C4)CC2)c2ccncc21)C(C)C [Example 22]
### Response > 40 µM

### Prompt How about C[C@@H]1COC[C@@H](C)N1C(=O)c1cc(F)ccc1-n1cc(C(=O)C2CCN(C(=O)[C@H]3N[C@@H]4CC[C@H]3C4)CC2)c2ccncc21 [Example 34] ?
### Response > 40 µM

### Prompt Next up: Cc1c(C(=O)C2CCN(C(=O)[C@@H]3CCC(C)(C)N3)CC2)c2ccncc2n1-c1ccc(F)cc1C(=O)N(C(C)C)C(C)C (single isomer, unassigned) [Example 56-1]
### Response > 40 µM

### Prompt Continue with CC(C)N(C(=O)c1cc(F)ccc1-n1cc(C(=O)C2CCN(C(=O)[C@H]3NC[C@@H]4CCC[C@@H]43)CC2)c2ccncc21)C(C)C [Example 21]
### Response > 40 µM

### Prompt Ok, now CC(C)N(C(=O)c1cc(F)ccc1-n1cc(C(=O)C2CN(C(=O)[C@H]3N[C@@H]4CC[C@H]3C4)C2)c2ccncc21)C(C)C [Example 5]
### Response > 40 µM

### Prompt Another compound to check: CC(C)N(C(=O)c1cc(F)ccc1-n1cc(C(=O)C2CCN(C(=O)[C@H]3NC[C@@H]4CC[C@@H]43)CC2)c2ccncc21)C(C)C (relative stereo) [Example 25]
### Response > 40 µM

### Prompt Subsequent entry: CC(C)N(C(=O)c1cc(F)ccc1-n1cc(C(=O)C2CCN(C(=O)[C@H]3NC4CCC3CC4)CC2)c2ccncc21)C(C)C [Example 20]
### Response > 40 µM

====

For each of the molecules below, state its microsomal CLint at 1 µM.
test-description: Human liver microsomes (HLMs) intrinsic clearance assay
Type: in vitro ADME
experimental-parameters: human, microsomes, pH 7.4, HLM CLint
Remember to put the unit after the number in your answer.

### Prompt I am curious: what microsomal CLint at 1 µM value has been reported for [2H]C([2H])([2H])C([2H])(N(C(=O)c1cc(F)ccc1-n1c(C)c(C(=O)C2CCN(C(=O)[C@@H]3CCC(C)(C)N3)CC2)c2ccncc21)C([2H])(C([2H])([2H])[2H])C([2H])([2H])[2H])C([2H])([2H])[2H] [Example 59] ?
### Response 59 µL/min/mg

### Prompt Please do the same for CC(C)N(C(=O)c1cc(F)ccc1-n1cc(C(=O)C2CCN(C(=O)[C@H]3NC4CCC3CC4)CC2)c2ccncc21)C(C)C [Example 20] as well.
### Response 27 µL/min/mg

### Prompt Try this molecule next: CC(C)N(C(=O)c1cc(F)ccc1-n1cc(C(=O)[C@@H]2CCN(C[C@H]3CC[C@H](NS(C)(=O)=O)CC3)C2)c2ccncc21)C(C)C [Example 4]
### Response 171 µL/min/mg

### Prompt Now the same for CCN(C(=O)c1cc(F)ccc1-n1cc(C(=O)C2CCN(C(=O)[C@H]3N[C@H]4C[C@@H]3[C@@H](F)C4)CC2)c2ccncc21)C(C)C [Example 30]
### Response 54 µL/min/mg

### Prompt What about CC(C)N(C(=O)c1cc(F)ccc1-n1cc(C(=O)C2CN(C(=O)[C@H]3N[C@@H]4CC[C@H]3C4)C2)c2ccncc21)C(C)C [Example 5] ?
### Response 35 µL/min/mg

### Prompt What do you get for Cc1c(C(=O)C2CCN(C(=O)[C@H]3NC[C@@H]4C[C@@H]43)CC2)c2ccncc2n1-c1ccc(F)cc1-c1cnccc1C(C)C [Example 54] ?
### Response 73 µL/min/mg
